# credit: patent US20220332699A1

Assay: Mouse pharmacokinetics
Type: in vivo
Details: mouse; 30 mg/kg PO, male CD-1 mice, plasma
Quantity Name: Cmax (µg/mL)

Structure	Quantity Name	Val
N#CC1(Cc2ccc(F)cc2)CCN(C(=O)c2cccnc2-c2ccncn2)CC1	Cmax	10.7

---

Molecular target: CYP46A1 (Homo sapiens)
Sequence (Q9Y6A2 whole entry): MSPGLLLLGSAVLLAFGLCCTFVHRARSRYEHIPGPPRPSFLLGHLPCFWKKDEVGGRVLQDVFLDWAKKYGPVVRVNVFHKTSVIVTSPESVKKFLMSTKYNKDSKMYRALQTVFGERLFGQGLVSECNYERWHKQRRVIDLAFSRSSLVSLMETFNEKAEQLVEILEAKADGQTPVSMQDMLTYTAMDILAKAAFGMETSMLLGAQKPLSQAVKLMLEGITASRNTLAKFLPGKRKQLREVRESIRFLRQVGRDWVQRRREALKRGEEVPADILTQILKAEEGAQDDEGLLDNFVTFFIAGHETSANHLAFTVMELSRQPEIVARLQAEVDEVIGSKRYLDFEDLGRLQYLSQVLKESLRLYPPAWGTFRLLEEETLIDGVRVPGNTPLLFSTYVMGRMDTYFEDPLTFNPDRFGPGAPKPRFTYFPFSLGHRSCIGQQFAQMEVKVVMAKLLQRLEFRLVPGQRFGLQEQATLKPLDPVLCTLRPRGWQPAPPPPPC
Test: CYP46A1 Enzyme Assay 2 (testosterone substrate, HPLC-MS)
Format: biochemical
Settings: read-out: IC50 (CYP46A1 inhibitory activity)
pIC50: −log10 of the molar value.

Molecule	pIC50
CC(c1cc(F)cc(F)c1)C1(C#N)CCN(C(=O)c2cccnc2-c2ccncc2)CC1 (stereo in doubt) [Compound A259]	> 7.00
N#CC1(Cc2ccc(F)cc2)CCN(C(=O)c2cccnc2-c2ccncn2)CC1	> 7.00
N#C[C@]1(Cc2ccc(F)cc2)[C@@H]2CC[C@H]1CN(C(=O)c1cccnc1-c1ccncn1)C2	< 6.00
N#CC1(Cc2c(F)cccc2F)CCN(C(=O)c2cccnc2-c2ccncc2)CC1	> 7.00
N#CC1(Cc2ccc(C3CC3)nc2)CCN(C(=O)c2cccnc2-c2ccncn2)CC1	> 7.00
N#CC1(Cc2ccc(F)cc2)CCN(C(=O)c2ccc(F)cc2-c2ccncn2)CC1	> 7.00
N#CC1(Cc2ccc(Cl)cc2)CCN(C(=O)c2cccnc2-c2ccncn2)CC1	> 7.00
Cc1ccc(C(=O)N2CCC(C#N)(Cc3ccc(F)cc3)CC2)c(-c2ccncn2)n1	< 6.00
N#CC1(Cc2ccc(F)cc2)CCN(C(=O)c2cccnc2-c2cncnc2)CC1	6.00 to 7.00
N#CC1(Cc2cccc(C(F)(F)F)c2F)CCN(C(=O)c2cccnc2-c2ccncc2)CC1	> 7.00
N#CC1(CC2CC2)CCN(C(=O)c2cccnc2-c2ccncn2)CC1	6.00 to 7.00
CC(c1cc(F)cc(F)c1)C1(C#N)CCN(C(=O)c2cccnc2-c2ccncn2)CC1 (stereo in doubt) [Compound A257]	> 7.00
CC(c1ccc(C(F)(F)F)cc1)C1(C#N)CCN(C(=O)c2cccnc2-c2ccncc2)CC1 (stereo in doubt) [Compound A268]	> 7.00
N#CC1(Cc2cnc(C(F)(F)F)nc2)CCN(C(=O)c2cccnc2-c2ccncn2)CC1	< 6.00
N#CC1(Cc2cc(C(F)(F)F)ccc2F)CCN(C(=O)c2cccnc2-c2ccncc2)CC1	> 7.00
C[C@@H](c1ccc(C(F)(F)F)cc1)C1(C#N)CCN(C(=O)c2cccnc2-c2ccncn2)CC1	> 7.00
N#CC1(Cc2ccc(F)cc2)CCN(C(=O)c2cc(F)ccc2-c2ccncn2)CC1	> 7.00
N#CC1(Cc2ccccc2C(F)(F)F)CCN(C(=O)c2cccnc2-c2ccncn2)CC1	> 7.00
C[C@H](c1c(F)cccc1F)C1(C#N)CCN(C(=O)c2cccnc2-c2ccncc2)CC1	> 7.00
